Assay: Absorbance and fluorescence emission spectra (SpectraMax M2)
Format: physicochemical
Conditions: MKCA compound library; fluorescence emission maximum
Experimental: BDC-8 (Blue): absorbance λmax=473 nm, emission λmax=585 nm; MK101-8 (Green): absorbance λmax=474 nm, emission λmax=563 nm; MKHA374-48 (Yellow): absorbance λmax=468 nm, λem=557 nm. The corresponding spectra of a reported BODIPY (BD-27; Red) are also included for comparison: absorbance λmax=551 nm, emission λmax=568 nm. […] ^1H-NMR, ^19F-NMR and ^13C-NMR spectra were recorded on Bruker ACF300 (300 MHz), DPX300 (300 MHz) and AMX500 (500 MHz) spectrometers. […]
reported-property: λmax Emission (nm)
Expressed in nm, but write only the number.

Solved entries (count: 2):
CCOc1ccccc1CNC1=[N+]2C(=C(c3ccc(NC(=O)CCl)cc3)c3ccc(-n4cc(CC(C)C)nn4)n3[B-]2(F)F)C=C1 [MKCA103-43]    563
CCCc1cn(-c2ccc3n2[B-](F)(F)[N+]2=C(N4CC(C)OC(C)C4)C=CC2=C3c2ccc(NC(=O)CCl)cc2)nn1 (stereo not drawn) [MKCA20-48]    569

Field: next molecule
So what's the measured λmax Emission (nm) for this one? CCOc1ccccc1CNC1=[N+]2C(=C(c3ccc(NC(=O)CCl)cc3)c3ccc(-n4cc(CC5CCCCC5)nn4)n3[B-]2(F)F)C=C1 [MKCA103-8]
563

---

The entries below are paired with their reported φ (%).
Assay: Quantum yield measurements versus Acridine Yellow in EtOH
Format: physicochemical
Conditions: MKAC compound library; quantum yield
// return numeric value only (unit: %, not printed)

Examples with answers:
CC(=O)Nc1ccc(C2=C3C=CC(N4CCc5ccccc5C4)=[N+]3[B-](F)(F)n3c2ccc3-n2cc(CC3CCCCC3)nn2)cc1    2.20
CCOc1ccccc1CNC1=[N+]2C(=C(c3ccc(NC(C)=O)cc3)c3ccc(-n4cc(CN(C)Cc5ccccc5)nn4)n3[B-]2(F)F)C=C1    18.63
CCCCCC(O)c1cn(-c2ccc3n2[B-](F)(F)[N+]2=C(N4CCCC4)C=CC2=C3c2ccc(NC(C)=O)cc2)nn1 (racemic)    2.00
CCOc1ccccc1CNC1=[N+]2C(=C(c3ccc(NC(C)=O)cc3)c3ccc(-n4cc(C5CCCC5)nn4)n3[B-]2(F)F)C=C1    18.11

I am curious: what φ (%) value has been reported for CC(=O)Nc1ccc(C2=C3C=CC(N4CC(C)OC(C)C4)=[N+]3[B-](F)(F)n3c2ccc3-n2cc(CC(C)C)nn2)cc1 (stereo not shown) ?
1.55

Can you check CC(=O)Nc1ccc(C2=C3C=CC(N4CCc5ccccc5C4)=[N+]3[B-](F)(F)n3c2ccc3-n2cc(CC(C)C)nn2)cc1 next?
1.92

Lookup CCCc1cn(-c2ccc3n2[B-](F)(F)[N+]2=C(N4CCCC4)C=CC2=C3c2ccc(NC(C)=O)cc2)nn1
2.70

// query: CC(=O)Nc1ccc(C2=C3C=CC(N(C)Cc4ccccc4)=[N+]3[B-](F)(F)n3c2ccc3-n2cc(C3CC3)nn2)cc1
5.45

// repeat for COc1ccc(OC)c(CNC2=[N+]3C(=C(c4ccc(NC(C)=O)cc4)c4ccc(-n5cc(C6CCCC6)nn5)n4[B-]3(F)F)C=C2)c1 and report
10.37

Could you do the same for CCCc1cn(-c2ccc3n2[B-](F)(F)[N+]2=C(NCc4cc(OC)ccc4OC)C=CC2=C3c2ccc(NC(C)=O)cc2)nn1 , please?
11.03

---

The following molecules are shown together with reported λmax Emission values.
Assay: Absorbance and fluorescence emission spectra (SpectraMax M2)
Type: physicochemical
Details: MK library, Table 5
State the answer as a number, implicitly in nm.

Some molecules with recorded λmax Emission:
COc1ccc(OC)c(CNC2=[N+]3C(=C(c4ccc(N)cc4)c4ccc(-n5cc(C6CC6)nn5)n4[B-]3(F)F)C=C2)c1    566
Cc1ccccc1CNC1=[N+]2C(=C(c3ccc(N)cc3)c3ccc(-n4cc(CC5CCCCC5)nn4)n3[B-]2(F)F)C=C1    564
COc1ccc(OC)c(CNC2=[N+]3C(=C(c4ccc(N)cc4)c4ccc(-n5cc(CCc6ccccc6)nn5)n4[B-]3(F)F)C=C2)c1    564

Recorded λmax Emission of Cc1ccccc1CNC1=[N+]2C(=C(c3ccc(N)cc3)c3ccc(-n4cc(C5CC5)nn4)n3[B-]2(F)F)C=C1 , please.
566

Follow-up entry: CC(C)Cc1cn(-c2ccc3n2[B-](F)(F)[N+]2=C(NCc4cc(F)cc(F)c4)C=CC2=C3c2ccc(N)cc2)nn1
564

Try Nc1ccc(C2=C3C=CC(N4CCCC4)=[N+]3[B-](F)(F)n3c2ccc3-n2cc(C3CCCC3)nn2)cc1 next.
568

---

Assay: Absorbance and fluorescence emission spectra (SpectraMax M2)
Assay type: physicochemical
Conditions: MKCA compound library; absorbance maximum
reported-property: λmax Absorp. (nm)

Examples from the recorded data:
O=C(CCl)Nc1ccc(C2=C3C=CC(N4CCCC4)=[N+]3[B-](F)(F)n3c2ccc3-n2cc(CO)nn2)cc1    459 nm
CC1CN(C2=[N+]3C(=C(c4ccc(NC(=O)CCl)cc4)c4ccc(-n5cc(C6CCCC6)nn5)n4[B-]3(F)F)C=C2)CC(C)O1 (stereo not drawn)    468 nm

// moving on: another record for λmax Absorp. (nm)
Sample CN(Cc1ccccc1)Cc1cn(-c2ccc3n2[B-](F)(F)[N+]2=C(N4CCc5ccccc5C4)C=CC2=C3c2ccc(NC(=O)CCl)cc2)nn1 — what was its λmax Absorp. (nm)?
466 nm

---

Listed here: items and their measured λmax Abs. (nm).
Assay: Absorbance and fluorescence emission spectra (SpectraMax M2)
Format: physicochemical
Conditions: MKAC compound library; absorbance maximum
Express it in nm; write the number only.

Known λmax Abs. (nm) results, listed for orientation:
CC(=O)Nc1ccc(C2=C3C=CC(N4CC(C)OC(C)C4)=[N+]3[B-](F)(F)n3c2ccc3-n2cc(CCc3ccccc3)nn2)cc1 (stereo not shown) [MKAC20-19]    467
CCCC(C)c1cn(-c2ccc3n2[B-](F)(F)[N+]2=C(NCc4cc(F)cc(F)c4)C=CC2=C3c2ccc(NC(C)=O)cc2)nn1 (stereo not shown) [MKAC412-3]    466
CC(=O)Nc1ccc(C2=C3C=CC(N4CCCC4)=[N+]3[B-](F)(F)n3c2ccc3-n2cc(C3CC3)nn2)cc1 [MKAC215-4]    462
CC(=O)Nc1ccc(C2=C3C=CC(NCc4ccccc4C)=[N+]3[B-](F)(F)n3c2ccc3-n2cc(CN(C)Cc3ccccc3)nn2)cc1 [MKAC101-18]    465
CCCCCC(O)c1cn(-c2ccc3n2[B-](F)(F)[N+]2=C(NCc4cc(OC)ccc4OC)C=CC2=C3c2ccc(NC(C)=O)cc2)nn1 (racemic) [MKAC181-69]    465

Which λmax Abs. (nm) reading was recorded for the molecule CC(=O)Nc1ccc(C2=C3C=CC(N4CCCC4)=[N+]3[B-](F)(F)n3c2ccc3-n2cc(C3CCCC3)nn2)cc1 [MKAC215-5] ?
463

Further, for CC(=O)Nc1ccc(C2=C3C=CC(N4CCCC4)=[N+]3[B-](F)(F)n3c2ccc3-n2cc(CC3CCCCC3)nn2)cc1 [MKAC215-8] ?
462

Let us now turn to CCCc1cn(-c2ccc3n2[B-](F)(F)[N+]2=C(NCc4cc(OC)ccc4OC)C=CC2=C3c2ccc(NC(C)=O)cc2)nn1 [MKAC181-48]
465

Again, but for CCCc1cn(-c2ccc3n2[B-](F)(F)[N+]2=C(N4CCCC4)C=CC2=C3c2ccc(NC(C)=O)cc2)nn1 [MKAC215-48]
461

What about this molecule? COc1ccc(OC)c(CNC2=[N+]3C(=C(c4ccc(NC(C)=O)cc4)c4ccc(-n5cc(CO)nn5)n4[B-]3(F)F)C=C2)c1 [MKAC181-70]
465

Then what about the molecule CC(=O)Nc1ccc(C2=C3C=CC(N(C)Cc4ccccc4)=[N+]3[B-](F)(F)n3c2ccc3-n2cc(CCc3ccccc3)nn2)cc1 [MKAC195-19] ?
467

Moving on to the next molecule: CC(=O)Nc1ccc(C2=C3C=CC(N4CCCC4)=[N+]3[B-](F)(F)n3c2ccc3-n2cc(CCc3ccccc3)nn2)cc1 [MKAC215-19]
462

Next molecule: CC(=O)Nc1ccc(C2=C3C=CC(NCc4cc(F)cc(F)c4)=[N+]3[B-](F)(F)n3c2ccc3-n2cc(CC(C)C)nn2)cc1 [MKAC412-43]
467

---

Assay: Absorbance and fluorescence emission spectra (SpectraMax M2)
Format: physicochemical
Conditions: MK library, Table 5
Listed compounds paired with reported λmax Emission
Numbers only; they are read as nm.

Here is how some compounds turned out for λmax Emission.
CCCc1cn(-c2ccc3n2[B-](F)(F)[N+]2=C(NCc4cc(F)cc(F)c4)C=CC2=C3c2ccc(N)cc2)nn1    563
CN(Cc1ccccc1)C1=[N+]2C(=C(c3ccc(N)cc3)c3ccc(-n4cc(C5CCCC5)nn4)n3[B-]2(F)F)C=C1    579
CCOc1ccccc1CNC1=[N+]2C(=C(c3ccc(N)cc3)c3ccc(-n4cc(C5CC5)nn4)n3[B-]2(F)F)C=C1    563
CN(Cc1ccccc1)Cc1cn(-c2ccc3n2[B-](F)(F)[N+]2=C(N4CCc5ccccc5C4)C=CC2=C3c2ccc(N)cc2)nn1    587

Give the measured λmax Emission of CC(C)Cc1cn(-c2ccc3n2[B-](F)(F)[N+]2=C(N4CCCC4)C=CC2=C3c2ccc(N)cc2)nn1 .
571

Then what about the compound COc1ccc(OC)c(CNC2=[N+]3C(=C(c4ccc(N)cc4)c4ccc(-n5cc(CN(C)Cc6ccccc6)nn5)n4[B-]3(F)F)C=C2)c1 ?
563

Entry CN(Cc1ccccc1)C1=[N+]2C(=C(c3ccc(N)cc3)c3ccc(-n4cc(CCc5ccccc5)nn4)n3[B-]2(F)F)C=C1 please
582

Try this compound too: CCCc1cn(-c2ccc3n2[B-](F)(F)[N+]2=C(NCc4ccccc4C)C=CC2=C3c2ccc(N)cc2)nn1
562

Subsequent entry: CCCCCC(O)c1cn(-c2ccc3n2[B-](F)(F)[N+]2=C(NCc4cc(OC)ccc4OC)C=CC2=C3c2ccc(N)cc2)nn1 (centres unmarked)
563

Moving on to the next compound: CCCC(C)c1cn(-c2ccc3n2[B-](F)(F)[N+]2=C(NCc4ccccc4OCC)C=CC2=C3c2ccc(N)cc2)nn1 (centres unmarked)
564

Next: COc1ccc(OC)c(CNC2=[N+]3C(=C(c4ccc(N)cc4)c4ccc(-n5cc(CC6CCCCC6)nn5)n4[B-]3(F)F)C=C2)c1
565

Same question for CCCC(C)c1cn(-c2ccc3n2[B-](F)(F)[N+]2=C(NCc4cc(OC)ccc4OC)C=CC2=C3c2ccc(N)cc2)nn1 (centres unmarked) please.
565

// next record CC1CN(C2=[N+]3C(=C(c4ccc(N)cc4)c4ccc(-n5cc(C6CC6)nn5)n4[B-]3(F)F)C=C2)CC(C)O1 (centres unmarked)
564

Follow-up entry: Nc1ccc(C2=C3C=CC(N4CCc5ccccc5C4)=[N+]3[B-](F)(F)n3c2ccc3-n2cc(CCc3ccccc3)nn2)cc1
585

These data points were gathered from patent US9513294B2.
